Method Summary: Therapeutic index, ratio of CC50 for human CEmx174 cells expressing GFP to IC50 for HIV-1 LAI infected in human CEMx174-LTR-GFP CG8 cells
Assay Conditions: read-out: Ratio CC50/EC50

# Compound, selectivity ratio
data = [
    ("COc1ccc(-c2nc(C(C)S(=O)(=O)c3cccc(Cl)c3)nc3ccsc23)cn1 (configuration not stated)", "> 595"),
    ("O=c1ccc(-c2nc(CS(=O)(=O)c3cccc(Cl)c3)nc3ccsc23)c[nH]1", "> 54"),
    ("COc1ccc(-c2nc(CSc3cc(C)cc(C)c3)nc3ccsc23)cn1", "> 64"),
    ("COc1ccc(Oc2nc(CS(=O)(=O)c3cccc(Cl)c3)nc3ccsc23)cc1", "> 60"),
    ("COc1ccc(-c2nc(C(C)(C)S(=O)(=O)c3cccc(Cl)c3)nc3ccsc23)cn1", "> 21"),
    ("COc1ccc(-c2nc(CSCc3cccc(Cl)c3)nc3ccsc23)cn1", "> 2.2"),
    ("COc1ccc(-c2nc(CSc3cccc(Cl)c3)nc3ccsc23)cn1", "> 714"),
    ("COc1ccc(-c2nc(CCc3cccc(Cl)c3)nc3ccsc23)cn1", "> 31"),
    ("COc1ccc(-c2nc(CS(=O)(=O)c3cccc(Cl)c3)nc3ccsc23)cn1", "> 400"),
    ("COc1ccc(-c2nc(CC(=O)c3cccc(Cl)c3)nc3ccsc23)cn1", 150),
    ("COc1ccc(-c2nc(CSc3cccc(Cl)c3Cl)nc3ccsc23)cn1", "> 10"),
    ("O=S(=O)(Cc1nc(-c2cccnc2)c2sccc2n1)c1cccc(Cl)c1", "> 103"),
    ("COc1ccc(-c2nc(CSc3cccc(C(F)(F)F)c3)nc3ccsc23)cn1", "> 190"),
    ("COc1ccc(-c2nc(CS(=O)(=O)c3cccc(Cl)c3)nc3ccsc23)cc1", 669),
    ("COc1ccc(-c2nc(CC(O)c3cccc(Cl)c3)nc3ccsc23)cn1 (configuration not stated)", 3.4),
    ("COc1ccc(-c2nc(CSc3ccc(F)cc3F)nc3ccsc23)cn1", "> 10"),
    ("COc1ccc(-c2nc(CSc3ccc(C(F)(F)F)cn3)nc3ccsc23)cn1", "> 2.7"),
    ("COc1ccc(-c2nc(S(=O)(=O)c3cccc(Cl)c3)nc3ccsc23)cn1", "> 155"),
    ("COc1ccc(Nc2nc(CS(=O)(=O)c3cccc(Cl)c3)nc3ccsc23)cc1", 18.8),
    ("COc1ccc(-c2nc(C[S+]([O-])c3cccc(Cl)c3)nc3ccsc23)cn1 (configuration not stated)", "> 93"),
    ("O=S(=O)(Cc1nc(-c2cccs2)c2sccc2n1)c1cccc(Cl)c1", "> 357"),
    ("O=S(=O)(Cc1nc(-c2ccc(Cl)nc2)c2sccc2n1)c1cccc(Cl)c1", 21),
    ("COc1ccc(-c2nc(C(F)S(=O)(=O)c3cccc(Cl)c3)nc3ccsc23)cn1 (configuration not stated)", "> 574"),
    ("COc1ccc(-c2nc(/C=C\\c3cccc(Cl)c3)nc3ccsc23)cn1", 6.6),
    ("O=S(=O)(Cc1nc(-c2ccc(F)nc2)c2sccc2n1)c1cccc(Cl)c1", 6.6),
    ("Cc1ccnc2c1NC(=O)c1cccnc1N2C1CC1", "> 66"),
    ("COc1ccc(-c2nc(CSc3cc(Cl)ccc3Cl)nc3ccsc23)cn1", "> 68"),
    ("O=S(=O)(Cc1nc(-c2ccncc2)c2sccc2n1)c1cccc(Cl)c1", "> 264"),
    ("COc1ccc(-c2nc(COc3cccc(Cl)c3)nc3ccsc23)cn1", "> 130"),
    ("O=S(=O)(Cc1nc(N2CCOCC2)c2sccc2n1)c1cccc(Cl)c1", "> 84"),
    ("O=S(=O)(Cc1nc(-c2ccoc2)c2sccc2n1)c1cccc(Cl)c1", "> 64"),
    ("COc1ccc(-c2nc(CNc3cccc(Cl)c3)nc3ccsc23)cn1", "> 74"),
    ("O=S(=O)(Cc1nc(-c2ccnc(Cl)c2)c2sccc2n1)c1cccc(Cl)c1", 233),
    ("COc1ccc(-c2nc(C3(S(=O)(=O)c4cccc(Cl)c4)CC3)nc3ccsc23)cn1", "> 724"),
    ("COc1ccc(-c2nc(C(F)(F)S(=O)(=O)c3cccc(Cl)c3)nc3ccsc23)cn1", "> 210"),
    ("COc1ccc(-c2nc(CSc3cccc(Br)c3)nc3ccsc23)cn1", "> 316"),
    ("COc1ccc(-c2nc(CCS(=O)(=O)c3cccc(Cl)c3)nc3ccsc23)cn1", "> 9.2"),
]
